Source of measurements: PubChem BioAssay AID624483

assay: compound fluorescence in toxin protease inhibitor counterscreen, primary screen, artefact control for toxin protease inhibitor project, biochemical, multiplex microsphere, HTS (AID 624483); conditions: compound autofluorescence counterscreen, microsphere flow cytometry; active compounds read high
Among all 360,000 compounds or so, about 11,000 (3.1%) were called active. Inconclusive results (about 2%) are left out. The full list was thinned out, with actives kept by preference.
endpointLabel: fluorescence intensity
Answers are plain numbers.

Here's what some known entries look like.
C=CCOc1ccccc1/C=N/NC(=O)Cc1ccccc1 = 4140
Cc1ccc2[nH]c(=O)c(CN(CC3COCCO3)C(=O)Nc3ccccc3C)cc2c1 (stereo not drawn) = 3250
Cc1c(C(=O)NCC2CC2)sc(=O)n1Cc1cccc(F)c1 = 5240
CCN(C(=O)COc1cccnc1[N+](=O)[O-])C1CCS(=O)(=O)C1 (stereo not drawn) = 2480
COc1cc(C(=O)NN(CCC#N)C2=NS(=O)(=O)c3ccccc32)cc(OC)c1OC = 4420

// each listed compound needs a value for fluorescence intensity
1. COc1ccc(C(=O)CC(=O)c2ccc(C)cc2)c(O)c1
2. O=C(NC(=O)N1CCOCC1)c1ccccc1
3. CCCCOCCCNC(=O)C[C@@H]1C[C@@]2(C(=O)OC)CCCCC=C2N(CCC2=CCCCC2)C1=O
4. O=C(NCCCN1CCOCC1)c1ccc([N+](=O)[O-])cc1[N+](=O)[O-]
5. Cc1onc(-c2c(F)cccc2Cl)c1C(=O)OCC(=O)N1C(C)CCCC1C (stereo not drawn)

1: 4090; 2: 9020; 3: 6000; 4: 4500; 5: 3180

Below are 2 compounds. Give each one its fluorescence intensity.
1. O=C(/C=C/[C@H]1O[C@@H](n2ccc(=O)[nH]c2=O)[C@H](O)[C@@H]1O)NCc1ccccn1
2. COc1ccc(OC)c(C(=O)c2ccc(C(=O)N3CCN(Cc4csc(C)n4)CC3)cc2)c1

[4540, 4240]
